System: NIH3T3
Assay: Antiproliferative activity against mouse NIH/3T3 cells after 72 hrs
Type: functional, cell-based
Conditions: NIH3T3, 72 h
Items are presented alongside their recorded IC50.

Worked examples, 3 compounds total:
smi=CCN1CCN(c2cnc3cc(C(F)(F)F)cc(NCc4cccc([N+](=O)[O-])c4)c3c2)CC1 testresult="13.2 µM"
smi=O=[N+]([O-])c1cccc(CNc2cc(C(F)(F)F)cc3ncc(N4CCOCC4)cc23)c1 testresult="≥ 50 µM"
smi=O=[N+]([O-])c1cccc(CNc2cc(C(F)(F)F)cc3ncc(N4CCN(S(=O)(=O)C5CC5)CC4)cc23)c1 testresult="≥ 50 µM"

Note: attention shifts to another entry.
The measured IC50 associated with "Cc1[nH]c(/C=C2\C(=O)Nc3ccc(S(=O)(=O)N(C)c4cccc(Cl)c4)cc32)c(C)c1C(=O)N1CCN(C)CC1" reads ≥ 50 µM

###

Assay: Clearance in mouse at 2.5 mg/kg, iv
Assay type: ADME, organism-based
Set-up: dose 2.5 mg/kg, route intravenous
Settings: in vivo
measureName: clearance
I'd appreciate it if you wrote the number followed by its unit.

Please fill in: clearance reported for "CS(=O)(=O)N1CCN(c2cnc3cc(C(F)(F)F)cc(NCc4cccc([N+](=O)[O-])c4)c3c2)CC1" = 43.3 mL/min/kg

###

Test system: SNU-5
Test: Antiproliferative activity against human SNU5 cells after 72 hrs
Conditions: SNU-5, 72 h
measureName: IC50 (nM)
Response body: numeric value in nM, unit text excluded.

smi=Cc1[nH]c(/C=C2\C(=O)Nc3ccc(S(=O)(=O)N(C)c4cccc(Cl)c4)cc32)c(C)c1C(=O)N1CCN(C)CC1 measurename=IC50 testresult=800

Now consider the entry below.
Measured IC50 for this entry "CC(=O)N1CCN(c2cnc3cc(C(F)(F)F)cc(NCc4cccc([N+](=O)[O-])c4)c3c2)CC1" on SNU-5: 1000

###

Reported values of Cmax for individual entries
Assay: Cmax in mouse at 20 mg/kg, po
Type: ADME, organism-based
Design: dose 20 mg/kg, route oral
Conditions: in vivo
Respond numerically; units are ng/mL and should not be typed.

Example molecules with recorded Cmax:
smi=CS(=O)(=O)N1CCN(c2cnc3cc(C(F)(F)F)cc(NCc4cccc([N+](=O)[O-])c4)c3c2)CC1 unitofmeasure=ng/mL testresult=59.3
smi=CCOC(=O)CN1CCN(c2cnc3cc(C(F)(F)F)cc(NCc4cccc([N+](=O)[O-])c4)c3c2)CC1 unitofmeasure=ng/mL testresult=279

Continue with the molecule presented below.
So, "CC(=O)N1CCN(c2cnc3cc(C(F)(F)F)cc(NCc4cccc([N+](=O)[O-])c4)c3c2)CC1" ? Its Cmax was 316

###

Target: Vascular endothelial growth factor receptor 1 (Homo sapiens, UniProt P17948)
Sequence (P17948 whole entry): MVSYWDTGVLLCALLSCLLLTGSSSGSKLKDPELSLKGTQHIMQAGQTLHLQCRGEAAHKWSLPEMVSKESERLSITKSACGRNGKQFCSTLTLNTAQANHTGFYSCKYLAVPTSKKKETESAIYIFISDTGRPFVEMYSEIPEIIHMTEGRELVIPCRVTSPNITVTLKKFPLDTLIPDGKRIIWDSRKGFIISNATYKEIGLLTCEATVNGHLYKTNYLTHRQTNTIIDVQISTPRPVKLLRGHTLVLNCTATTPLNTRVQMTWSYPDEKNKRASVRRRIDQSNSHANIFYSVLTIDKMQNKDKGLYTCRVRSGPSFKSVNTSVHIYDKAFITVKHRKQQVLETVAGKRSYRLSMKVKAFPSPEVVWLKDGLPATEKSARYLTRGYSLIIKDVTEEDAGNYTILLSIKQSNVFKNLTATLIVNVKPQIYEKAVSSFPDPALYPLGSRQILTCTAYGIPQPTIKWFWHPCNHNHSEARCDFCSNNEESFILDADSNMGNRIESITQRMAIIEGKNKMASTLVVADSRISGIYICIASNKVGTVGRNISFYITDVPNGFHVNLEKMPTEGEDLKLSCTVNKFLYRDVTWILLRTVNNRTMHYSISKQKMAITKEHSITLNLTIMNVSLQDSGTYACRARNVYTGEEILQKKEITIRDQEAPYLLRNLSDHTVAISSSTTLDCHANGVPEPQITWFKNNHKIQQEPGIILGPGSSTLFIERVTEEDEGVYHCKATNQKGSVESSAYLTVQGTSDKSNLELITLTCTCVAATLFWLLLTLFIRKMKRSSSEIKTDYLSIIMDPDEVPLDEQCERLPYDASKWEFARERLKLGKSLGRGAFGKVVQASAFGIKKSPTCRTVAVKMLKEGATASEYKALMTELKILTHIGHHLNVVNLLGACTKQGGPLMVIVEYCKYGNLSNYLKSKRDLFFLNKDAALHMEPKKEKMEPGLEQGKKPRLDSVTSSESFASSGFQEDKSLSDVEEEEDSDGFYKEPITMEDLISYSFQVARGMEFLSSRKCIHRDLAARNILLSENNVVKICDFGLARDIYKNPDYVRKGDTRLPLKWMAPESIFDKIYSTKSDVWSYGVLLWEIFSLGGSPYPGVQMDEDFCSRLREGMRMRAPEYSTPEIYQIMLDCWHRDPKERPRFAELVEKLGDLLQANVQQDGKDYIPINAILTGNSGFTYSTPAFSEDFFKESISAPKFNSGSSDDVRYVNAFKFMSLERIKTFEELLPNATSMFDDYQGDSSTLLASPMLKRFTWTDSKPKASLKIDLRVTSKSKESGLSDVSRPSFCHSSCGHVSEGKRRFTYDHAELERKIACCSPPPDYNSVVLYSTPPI
pIC50: −log10 of the molar value.
measureName: pIC50

// compound "CC(=O)N1CCN(c2cnc3cc(C(F)(F)F)cc(NCc4cccc([N+](=O)[O-])c4)c3c2)CC1" , assay Vascular endothelial growth factor receptor 1 (Homo sapiens, UniProt P17948), pIC50 value: < 5.00

###

Test: Half life in mouse at 2.5 mg/kg, iv
Type: ADME, organism-based
Parameters: dose 2.5 mg/kg, route intravenous
Conditions: in vivo
measureName: half-life
Give the figure together with its unit, number first.

# half-life (molecule: "CS(=O)(=O)N1CCN(c2cnc3cc(C(F)(F)F)cc(NCc4cccc([N+](=O)[O-])c4)c3c2)CC1" ) is 58.2 min
